Substrate: PET
PROTOCOL_TEXT: Proxy for plastic degradation [Released monomer concentration (HPLC/LC-MS) (TPA)]
CONDITIONS_USED: pH 8
Measured Proxy for plastic degradation of individual entries

PROTEIN	Proxy for plastic degradation
unnamed (protein) MSNPYQRGPNPTRSALTADGPFSVATYTVSRLSVSGFGGGVIYYPTGTSLTFGGIAMSPGYTADASSLAWLGRRLASHGFVVLVINTNSRFDGPDSRASQLSAALNYLRTSSPSAVRARLDANRLAVAGHSMGGGGTLRIAEQNPSLKAAVPLTPWHTDKTFNTSVPVLIVGAEADTVAPVSQHAIPFYQNLPSTTPKVYVELCNASHIAPNSNNAAISVYTISWMKLWVDNDTRYRQFLCNVNDPALCDFRTNNRHCQLEHHHHHH	3 mM/mg
unnamed (protein) MFRFHIVSALLTLFIAVPSQAHDVGQREIKISGAEPGRNLEVSVWYPAAIDGKATLIGDNIIFKGAPAVIDATPEKGSFPLLVMSHGSGGRAQGMAWLATELVKAGIIVAAPNHPGTTSGDSTPQDTPKIWQRTGDLSAVIDTMTTDPAWSGIIDKNKISVLGFSLGGAAAMEIAGARANLEAYARYCDTYGKWDCAWYAGGIGYRDDKQIKVDKVDLRSVDKSRFEQSNLDRRIASAIMIDPGLAQAYDAQSLASISIPMSFINLGEVETIPTGVVADKLASITPQGTYVTVDGATHFSFLPECKKGAADRLKSAGEVDPICSDDARRPRADIHADITKLVLKALQSMPKT	1 mM/mg
unnamed (protein) MMGYITAHDGTNLYVEDVGFGEPIVFLHGWPANNNMFEYQKNALVEAGYRYIGIDFRGYGKSDAPATGYDYETMASDVHMVVYGLGLKNFTLVGFSMGGAIAVRYAADYKEDGLNKLVLAGAAAPIFTQRADYPYGMTTDEVDALIDDTRADRPKMLEGFGEIFFEKEHSKPMQNWFHHLALVASSHGTIASAQALRDEDLRDALPKIDVETLIIHGVHDKICPFAFAEQMEQGISNARIERFEESGHGTVLDEREKFNDTLLQFVQ	3.7 mM/mg
